The origin of these recorded values is the Human Domainome abundance scans (Beltran et al. 2025).

B1: Cold shock protein CspB, residues 1 to 66; numbered along this chain, P41016 (parent)
chain: MQRGKVKWFNNEKGYGFIEVEGGSDVFVHFTAIQGEGFKTLEEGQEVSFEIVQGNRGPQAANVVKL

variants of: B1; experiment: abundance fitness (aPCA) (normalised: wild type 0, dead -1); higher = more abundant; growth selection in yeast, the domain comes from the species named; conditions: Bacillus caldolyticus
I'd appreciate it if you could supply abundance fitness values for the items below.
A bare number is all that is needed in reply.

**Q:** I am curious: what abundance fitness value has been reported for "K5M" ?
**A:** -0.069

**Q:** Which abundance fitness reading was recorded for the variant "T40W" ?
**A:** -0.076

**Q:** Consider the variant "S24W" and give its measured abundance fitness.
**A:** -0.031

**Q:** Entry under review: "T40A" . Reported abundance fitness?
**A:** -0.022

**Q:** Returns the measured abundance fitness for the input variant. Input: "E43I"
**A:** -0.031

**Q:** Could you tell me which abundance fitness is on file for "Q34Y" ?
**A:** -0.073

**Q:** Would you mind telling me what abundance fitness value was observed for "A32S" ?
**A:** -0.032

**Q:** Query (variant): "G44N" ; field requested: abundance fitness
**A:** -0.086

**Q:** GET /values?readout=abundance fitness&item= "H29I"
**A:** -0.538

**Q:** Fill in: abundance fitness of "E43M" is ___
**A:** 0.022

**Q:** Entry under review: "H29S" . Reported abundance fitness?
**A:** -0.345

**Q:** Suppose we examine the variant "F17Y" ; what abundance fitness value has been reported?
**A:** -0.192

**Q:** // abundance fitness lookup, key: "H29N"
**A:** -0.228

**Q:** What value of measured abundance fitness is listed for "S24H" ?
**A:** 0.007

**Q:** Name the reported abundance fitness value associated with the variant "F17G"
**A:** -0.236

**Q:** Can you look up the measured abundance fitness of "N11K" for me?
**A:** -0.047

**Q:** Recorded abundance fitness of "Y15S" , please.
**A:** -0.22

**Q:** Any idea what its abundance fitness is? The variant is "V20M"
**A:** -0.018

**Q:** GET /values?readout=abundance fitness&item= "K7D"
**A:** -0.199

**Q:** Tell me the measured abundance fitness of "F27Y" , please.
**A:** 0.003

**Q:** Data request, read-out abundance fitness, for "E42Y"
**A:** -0.036

**Q:** Recorded abundance fitness for "K5G" , please?
**A:** -0.222

**Q:** If you can, please state the reported abundance fitness value of "G44Y" .
**A:** -0.066

**Q:** Endpoint output: abundance fitness of "K5A" . Value?
**A:** -0.042

**Q:** Please give the measured abundance fitness for this variant: "F9E"
**A:** -0.827

**Q:** I have this variant here, "G44E" , and I need its recorded abundance fitness.
**A:** -0.05
